- Tested Target: Metabotropic glutamate receptor 3 (Rattus norvegicus)
- Procedure Summary: Negative allosteric modulation of rat mGlu3 receptor assessed as amplitude response at 30 uM relative to glutamate
Below is a list of entries, each paired with its recorded Activity value.
Give the quantity in %, number only.

C[C@@H]1CN(c2ccc(F)cc2)C(=O)c2cc(COc3cccc(Cl)c3)nn21
1.96
CCOc1ccc(OCc2cc3n(n2)[C@H](C)CN(c2ccc(F)cc2)C3=O)cc1
3.39
C[C@@H]1CN(c2ccc(F)nc2)C(=O)c2cc(COc3ccc(Cl)cn3)nn21
1.45
C[C@@H]1CN(c2cccc(Cl)c2)C(=O)c2cc(COc3ccc(F)cn3)nn21
2.3
C[C@@H]1CN(c2ccc(F)cc2)C(=O)c2cc(COc3ccc(C#N)cc3)nn21
2.53
C[C@@H]1CN(c2ccccc2Cl)C(=O)c2cc(COc3ccc(F)cn3)nn21
1.37
COc1ccccc1N1C[C@@H](C)n2nc(COc3ccc(Cl)cn3)cc2C1=O
1.29
C[C@@H]1CN(c2cccc(F)c2)C(=O)c2cc(COc3ccc(Cl)cn3)nn21
1.38

Exercise: Can you share its Activity? I mean this molecule: C[C@@H]1CN(c2cccnc2F)C(=O)c2cc(COc3ccc(Cl)cn3)nn21
Solution: 1.71

Exercise: Quick one: C[C@@H]1CN(c2ccc(F)cn2)C(=O)c2cc(COc3ccc(Cl)cn3)nn21
Solution: 2.44

Exercise: Quick one: C[C@@H]1CN(c2cncc(C#N)c2)C(=O)c2cc(COc3ccc(Cl)cn3)nn21
Solution: 1.08

Exercise: Quick one: C[C@@H]1CN(c2cc(F)ccc2C#N)C(=O)c2cc(COc3ccc(Cl)cn3)nn21
Solution: 1.55

Exercise: Quick one: C[C@@H]1CN(c2ccncc2)C(=O)c2cc(COc3ccc(F)cn3)nn21
Solution: 0.77

Exercise: Quick one: C[C@@H]1CN(c2c(F)cccc2F)C(=O)c2cc(COc3ccc(Cl)cn3)nn21
Solution: 2.06

Exercise: Quick one: C[C@@H]1CN(c2ccc(F)cc2)C(=O)c2cc(COc3ccc(F)cc3F)nn21
Solution: 1.7

Exercise: Quick one: CCc1ccc(OCc2cc3n(n2)[C@H](C)CN(c2ccc(F)cc2)C3=O)cc1
Solution: 2.29
